test: Solubility measurement (DMSO solution method), McIlvaine buffer pH 4.5 or 6.8; assay type: physicochemical; conditions: aqueous buffer, kinetic from dmso stock; McIlvaine buffer pH 4.5; DMSO stock diluted to 250 μM; 24 h shaking at ambient temperature; read-out: solubility pH 4.5
# solubility at 24 h per entry
measuredMetric: solubility at 24 h

inputsmiles=C[C@H](Oc1cc(N2C[C@@H]3[C@@H](N)[C@@H]3C2)nc(-c2noc3c2CCC[C@@]32CCCc3sc(N)c(C#N)c32)n1)[C@@H]1CCCN1C observedresult="> 153 µg/mL"
inputsmiles=C[C@H]1CNCCCN1c1nc(-c2onc3c2CCC[C@@]32CCCc3sc(N)c(C#N)c32)cc(C(F)(F)F)n1 observedresult="1 µg/mL"
inputsmiles=C[C@H](Oc1cc(-n2ccc(C(=O)N[C@@H]3CCOC3)n2)nc(-c2onc3c2CCC[C@@]32CCCc3sc(N)c(C#N)c32)n1)[C@@H]1CCCN1C observedresult="108 µg/mL"
inputsmiles=COCCNC(=O)c1ccn(-c2cc(O[C@@H](C)[C@@H]3CCCN3C)nc(-c3onc4c3CCC[C@@]43CCCc4sc(N)c(C#N)c43)n2)n1 observedresult="> 128 µg/mL"
inputsmiles=Cc1cn(-c2cc(O[C@@H](C)[C@@H]3CCCN3C)nc(-c3noc4c3CCC[C@@]43CCCc4sc(N)c(C#N)c43)n2)nn1 observedresult="107 µg/mL"
inputsmiles=C[C@H](Oc1cc(-c2ccn([C@H]3CCOC3)n2)nc(-c2noc3c2CCC[C@@]32CCCc3sc(N)c(C#N)c32)n1)[C@@H]1CCCN1C observedresult="> 127 µg/mL"

====

Tested on: SAS cells
Test: SAS CTG proliferation assay (120 h) (HNSCC, wt amplified)
Assay type: cell-based
Experimental: SAS CTG Proliferation Assay (120 h) (HNSCC, Wt Amplified) SAS cells (JCRB0260) are dispensed into 384-well plates, flat and clear bottom (Greiner, PNr. 781091) at a density of 300 cells per well in 60 μL DMEM:F12 (Gibco 31330-038)+10% Fetal Calf Serum (HyClone, PNr.: SH30084.03) and incubated at 37° C. in a CO2 incubator overnight. […] Plates are incubated for 120 h, and cell viability is measured using CellTiter-Glo luminescent cell viability reagent (Promega product code G7570). […]
pIC50: −log10 of the molar value.
Hi all, reminder that labels come from pIC50, split as label 0 = under 6, label 1 = from 6 up to 7, label 2 = 7 and over

compound="C[C@H](Oc1cc(N2CCN3CCC3C2)nc(-c2onc3c2CCC[C@@]32CCCc3sc(N)c(C#N)c32)n1)[C@@H]1CCCN1C (stereo partly shown) [I-9]" group="label 0"
compound="C[C@H](O)Cn1ccc(-c2cc(O[C@@H](C)[C@@H]3CCCN3C)nc(-c3onc4c3CCC[C@@]43CCCc4sc(N)c(C#N)c43)n2)n1 [I-31]" group="label 2"
compound="COCCNC(=O)c1ccn(-c2cc(O[C@@H](C)[C@@H]3[C@@H](OC)CCN3C)nc(-c3onc4c3CCC[C@@]43CCCc4sc(N)c(C#N)c43)n2)n1 [I-55]" group="label 2"
compound="C[C@H](Oc1cc(-c2cnn(C)c2)nc(-c2noc3c2CCC[C@@]32CCCc3sc(N)c(C#N)c32)n1)[C@@H]1CCCN1C [II-74]" group="label 1"
compound="C[C@H](Oc1cc(N2CC[C@H](N(C)C)C2)nc(-c2onc3c2CCC[C@@]32CCCc3sc(N)c(C#N)c32)n1)[C@@H]1CCCN1C [I-11]" group="label 1"
compound="C[C@H](Oc1cc(N2CCNC3(COC3)C2)nc(-c2onc3c2CCC[C@@]32CCCc3sc(N)c(C#N)c32)n1)[C@@H]1CCCN1C [I-4]" group="label 1"
compound="C[C@H](Oc1cc(N2CCNC3(CC3)C2)nc(-c2onc3c2CCC[C@@]32CCCc3sc(N)c(C#N)c32)n1)[C@@H]1CCCN1C [I-5]" group="label 0"
compound="Cc1nccn1-c1cc(O[C@@H](C)[C@@H]2CCCN2C)nc(-c2noc3c2CCC[C@@]32CCCc3sc(N)c(C#N)c32)n1 [II-79]" group="label 0"
compound="C[C@H](Oc1cc(-c2cncs2)nc(-c2noc3c2CCC[C@@]32CCCc3sc(N)c(C#N)c32)n1)[C@@H]1CCCN1C [II-80]" group="label 0"
compound="CCOC(=O)c1ccn(-c2cc(O[C@@H](C)[C@@H]3CCCN3C)nc(-c3noc4c3CCC[C@@]43CCCc4sc(N)c(C#N)c43)n2)n1 [II-23]" group="label 1"
compound="C[C@H](Oc1nc(-c2noc3c2CCC[C@@]32CCCc3sc(N)c(C#N)c32)nc(N2CCN(C)C3(CC3)C2)c1Cl)[C@@H]1C[C@@H](F)CN1C [II-176]" group="label 0"
compound="C[C@H](Oc1cc(N2CCN(C)C2=O)nc(-c2noc3c2CCC[C@@]32CCCc3sc(N)c(C#N)c32)n1)[C@@H]1CCCN1C [II-75]" group="label 2"
compound="C[C@H](Oc1cc(-n2ccc(C(=O)N[C@@H]3CCOC3)n2)nc(-c2onc3c2CCC[C@@]32CCCc3sc(N)c(C#N)c32)n1)[C@@H]1CCCN1C [I-56]" group="label 2"
compound="C[C@H](Oc1cc(-n2cncc3ccnc2-3)nc(-c2noc3c2CCC[C@@]32CCCc3sc(N)c(C#N)c32)n1)[C@@H]1CCCN1C [II-105]" group="label 2"
compound="CO[C@@H]1C[C@@H]([C@H](C)Oc2cc(N3CCN(C)C4(CC4)C3)nc(-c3onc4c3CCC[C@@]43CCCc4sc(N)c(C#N)c43)n2)N(C)C1 [I-50]" group="label 0"
compound="C[C@H](Oc1cc(-n2ccncc2=O)nc(-c2noc3c2CCC[C@@]32CCCc3sc(N)c(C#N)c32)n1)[C@@H]1CCCN1C [II-116]" group="label 0"
compound="CO[C@H]1CCN(C)[C@@H]1[C@H](C)Oc1cc(-n2ccc(CC(=O)NC(C)C)n2)nc(-c2noc3c2CCC[C@@]32CCCc3sc(N)c(C#N)c32)n1 [II-183]" group="label 2"
compound="C[C@H](Oc1cc(-n2cc3c(n2)CCNC3)nc(-c2noc3c2CCC[C@@]32CCCc3sc(N)c(C#N)c32)n1)[C@@H]1CCCN1C [II-53]" group="label 0"
compound="C[C@H](Oc1cc(-c2ccn(Cc3ncco3)n2)nc(-c2noc3c2CCC[C@@]32CCCc3sc(N)c(C#N)c32)n1)[C@@H]1CCCN1C [II-128]" group="label 2"
compound="COCCNC(=O)c1ccn(-c2cc(O[C@@H](C)[C@@H]3[C@@H](OC)CCN3C)nc(-c3noc4c3CCC[C@@]43CCCc4sc(N)c(C#N)c43)n2)n1 [II-200]" group="label 2"
